# test.name: luminescence decrease from intact luciferase reporter – cell-based, single concentration, SaOS-2, counter-screen for Mdm2/MdmX interaction inhibitor project, confirmation (AID 504607);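 also: p53-null SaOS-2 cells with luciferase driven by a doxycycline-inducible promoter; compound on cells about two nights before reading with doxycycline added after day one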
# measurement.conditions: SaOS-2 full-length luciferase counterscreen, at 8 µM, hits give high values
In all, about 6,200 compounds went through this assay and about 4,800 (77%) were called active. The set was probably picked from earlier hits. A selection follows.
assay.endpoint: inhibition (%)
Kindly answer with a numeric value in %, unit omitted.

>  <molecule>
Nc1nonc1-c1nc2ccccc2n1Cc1ccc(F)cc1

>  <inhibition (%)>
71.9

$$$$
>  <molecule>
Cc1oc2c(c1C(=O)N1CCOCC1)C(=O)c1ccccc1C2=O

>  <inhibition (%)>
56.8

$$$$
>  <molecule>
O=[N+]([O-])/C=C/c1ccc2c(ccn2Cc2ccccc2)c1

>  <inhibition (%)>
49

$$$$
>  <molecule>
CC1=C/C(=N\OS(=O)(=O)c2ccccc2)C=CC1=O

>  <inhibition (%)>
45.1

$$$$

Prompt line: // lookup inhibition for COc1cccc(-n2c(SCC(=O)NC3CCCCC3)nc3n[nH]c(C)c3c2=N)c1
Response line: 66.3

Prompt line: Follow-up entry: O=C(COc1ccccc1F)Nc1nc(-c2ccccn2)cs1
Response line: 47.2

Prompt line: Follow-up entry: OCCCNc1nccc(-c2cc(Nc3cccc(Cl)c3)ncn2)n1
Response line: 53.2

Prompt line: Follow-up entry: CC1CCCCC1NC(=O)/C(C#N)=C/C=C/c1ccccc1[N+](=O)[O-] (configuration not stated)
Response line: 57.2

Data origin: PubChem BioAssay AID504607
